Each recorded value in this set is attributed to patent US20090175860A1.

biological target: full length human c-Met on cells (human, UniProt P08581 25-1390); assay: cell-based or functional assay
Sequence (P08581 25-1390): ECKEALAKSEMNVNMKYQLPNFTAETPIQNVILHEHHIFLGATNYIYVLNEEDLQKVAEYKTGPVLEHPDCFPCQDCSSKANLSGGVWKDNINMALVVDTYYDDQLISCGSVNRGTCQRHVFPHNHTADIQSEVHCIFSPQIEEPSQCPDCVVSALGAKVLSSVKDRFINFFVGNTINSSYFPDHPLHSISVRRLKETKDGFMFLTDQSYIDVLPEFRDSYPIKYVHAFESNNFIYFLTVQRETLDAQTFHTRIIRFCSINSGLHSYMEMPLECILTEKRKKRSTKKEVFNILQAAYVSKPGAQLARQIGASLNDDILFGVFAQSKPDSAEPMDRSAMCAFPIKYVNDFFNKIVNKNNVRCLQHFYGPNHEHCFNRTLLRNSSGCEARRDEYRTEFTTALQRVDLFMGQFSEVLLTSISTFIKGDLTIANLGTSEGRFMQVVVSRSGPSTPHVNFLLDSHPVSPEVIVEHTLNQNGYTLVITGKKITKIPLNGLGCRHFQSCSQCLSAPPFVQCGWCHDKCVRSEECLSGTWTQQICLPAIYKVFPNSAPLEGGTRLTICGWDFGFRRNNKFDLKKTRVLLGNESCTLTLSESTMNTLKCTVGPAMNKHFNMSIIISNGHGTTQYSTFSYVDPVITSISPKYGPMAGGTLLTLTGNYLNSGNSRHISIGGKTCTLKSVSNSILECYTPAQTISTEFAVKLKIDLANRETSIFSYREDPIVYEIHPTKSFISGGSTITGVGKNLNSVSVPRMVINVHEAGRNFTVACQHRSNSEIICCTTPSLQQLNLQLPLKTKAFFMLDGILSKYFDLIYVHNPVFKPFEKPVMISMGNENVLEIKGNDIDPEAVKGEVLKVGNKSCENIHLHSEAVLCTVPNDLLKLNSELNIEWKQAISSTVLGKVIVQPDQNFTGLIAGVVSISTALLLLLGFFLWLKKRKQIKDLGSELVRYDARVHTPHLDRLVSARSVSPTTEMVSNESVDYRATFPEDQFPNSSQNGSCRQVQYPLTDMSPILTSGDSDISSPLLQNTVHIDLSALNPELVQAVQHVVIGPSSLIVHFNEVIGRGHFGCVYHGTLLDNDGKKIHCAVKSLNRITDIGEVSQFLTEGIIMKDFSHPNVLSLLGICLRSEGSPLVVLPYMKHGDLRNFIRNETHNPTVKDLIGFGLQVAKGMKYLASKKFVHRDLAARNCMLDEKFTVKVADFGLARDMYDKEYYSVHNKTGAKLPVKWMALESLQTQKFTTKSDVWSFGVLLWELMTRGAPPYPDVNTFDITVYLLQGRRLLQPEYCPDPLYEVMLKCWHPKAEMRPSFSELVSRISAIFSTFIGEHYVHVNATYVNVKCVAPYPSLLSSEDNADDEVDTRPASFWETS
assay.readout: EC50 [nM] Inhibition of HGF driven migration NCI-H441 (nM)
Your answer should be a plain number; it is taken to be in nM.

04536 in IgG format (antibody, V domains shown) VH: QVQLVQSGAEVKKPGASVKVSCKASGYTFTGYYMNWVRQAPGQGLEWMGIINPWTGNTNYAQKFQGRVTMTRDTSISTAYMELSSLRSEDTAVYYCARDPGFFYYTPSDLWGQGTLVTVSS VL: DIELTQPPSVSVAPGQTARISCSGDSIGNKYVHWYQQKPGQAPVLVIYADSDRPSGIPERFSGSNSGNTATLTISGTQAEDEADYYCQAYDSSMLRVFGGGTKLTVLG = 0.61
04541 in IgG format (antibody, V domains shown) VH: QVQLQESGPGLVKPGETLSLTCTVSGGSISSSSYYWNWIRQAPGKGLEWIGEIYFGWTYYNPSLKGRVTISVDTSKNQFSLKLSSVTAEDTAVYYCARGYEFHGYTTFDYWGQGTLVTVSS VL: DIELTQPPSVSVAPGQTARISCSGDNIGSYYVYWYQQKPGQAPVLVIYDDNDRPSGIPERFSGSNSGNTATLTISGTQAEDEADYYCQSYDFPSIVFGGGTKLTVLG = 0.27
04537 in IgG format (antibody, V domains shown) VH: QVQLVQSGAEVKKPGESLKISCKGSGYSFSNYWIGWVRQMPGKGLEWMGFIFPDTSYTRYSPSFQGQVTISADKSISTAYLQWSSLKASDTAMYYCARVKLITDYWGQGTLVTVSS VL: DIELTQPPSVSVAPGQTARISCSGDSLRSYFVSWYQQKPGQAPVLVIYDDDDRPSGIPERFSGSNSGNTATLTISGTQAEDEADYYCASWDTLSDVEVFGGGTKLTVLG = 0.14

Please look at the following binder next.
Query: # get_value(readout='EC50 [nM] Inhibition of HGF driven migration NCI-H441', item= 04687 in IgG format (antibody, V domains shown) VH: QVQLVQSGAEVKKPGSSVKVSCKASGGTFSSYAISWVRQAPGQGLEWMGGIDPFGTANYAQKFQGRVTITADESTSTAYMELSSLRSEDTAVYYCARVYQDVWGQGTLVTVSS VL: DIVMTQSPDSLAVSLGERATINCRSSQSILYGINNNFLGWYQQKPGQPPKLLIYWASTRESGVPDRFSGSGSGTDFTLTISSLQAEDVAVYYCQQYYNHPHTFGQGTKVEIKR )
Result: 1.68
